- Test system: Akt phosphorylated at Thr308 in PC-3 cells
- Assay Name: Cellular assay: phosphorylation of Akt (Thr308) in PC-3 cells, MSD ELISA
- Type: cell-based
- Settings: Homo sapiens, PC-3, 1 h, 60 min incubation with compound, read-out: IC50 pAkt_Thr308
pIC50: −log10 of the molar value.
Measurement Kind: pIC50

INSERT INTO results (molecule, assay_target, measurement_kind, observed) VALUES
  ('Cc1c(F)cccc1Cc1c(CO)nc2c(N)cc(N3CCOCC3)nn12', 'Akt phosphorylated at Thr308 in PC-3 cells', 'pIC50', 6.92),
  ('Cc1nc2c(N)cc(N3CCOCC3)nn2c1Nc1cccc(C(F)(F)F)c1CN1CC2(CCS2(=O)=O)C1', 'Akt phosphorylated at Thr308 in PC-3 cells', 'pIC50', '~7.06'),
  ('Cc1nc2c(C(N)=O)cc(N3CCOCC3)nn2c1Nc1ccccc1N1CCOCC1', 'Akt phosphorylated at Thr308 in PC-3 cells', 'pIC50', '~6.65'),
  ('Cc1nc2c(N)cc(N3CCOCC3)nn2c1Nc1cccc2c1CCNC2', 'Akt phosphorylated at Thr308 in PC-3 cells', 'pIC50', 6.95),
  ('Cc1nc2c(C(=O)O)cc(C3=CCOCC3)nn2c1Cc1cccc(C(F)(F)F)c1C', 'Akt phosphorylated at Thr308 in PC-3 cells', 'pIC50', '~6.29'),
  ('Cc1nc2c(N)cc(N3CCOCC3)nn2c1Nc1cccc(C(F)(F)F)c1CO', 'Akt phosphorylated at Thr308 in PC-3 cells', 'pIC50', '~7.09'),
  ('Cc1nc2c(-c3cnc[nH]3)cc(N3CCOCC3)nn2c1Cc1cccc(C(F)(F)F)c1C', 'Akt phosphorylated at Thr308 in PC-3 cells', 'pIC50', '~7.32'),
  ('Cc1c(Cc2c(CNCCO)nc3c(-c4ncc[nH]4)cc(N4CCOCC4)nn23)cccc1C(F)(F)F', 'Akt phosphorylated at Thr308 in PC-3 cells', 'pIC50', '~6.92'),
  ('Cc1c(Cc2c(C(C)O)nc3c(-c4c[nH]cn4)cc(N4CCOCC4)nn23)cccc1C(F)(F)F (stereo not shown)', 'Akt phosphorylated at Thr308 in PC-3 cells', 'pIC50', '~7.38'),
  ('Cc1c(Cc2c(COC(=O)C(N)Cc3ccccc3)nc3c(N)cc(N4CCOCC4)nn23)cccc1C(F)(F)F (stereo not shown)', 'Akt phosphorylated at Thr308 in PC-3 cells', 'pIC50', '~6.71');
